assay: IN Cell qHTS Assay for Inhibitors of the mTORC1 Signaling Pathway in MEF (Tsc2-/-, p53-/-) Cells: Sytravon; conditions: phospho-rpS6 immunofluorescence, 24 h; series mostly up to 38.3 µM; further: nearly all actives have a fitted effect of over 60% in size
Among all 2,100 compounds or so, about 210 (10%) were called active. About 53% were inconclusive and are not listed. The call rests on the fitted dose curve; in most records, active means well fitted inhibition curve with a large enough effect; inconclusive means small, poorly fitted or top-dose-only effect, or effect the other way; inactive means no such curve, though single readings can be large or run the other way. The list shows a part of the results.
Give one outcome, nothing more. List: y for active, n for inactive

# count of solved cases: 5
CCCCOc1cccc(C(=O)N2CCN(CCc3ccncc3)CC2)c1 :: n
COc1ccc(CCCc2nnc(SCC(=O)Nc3cccc(F)c3C)o2)cc1 :: n
O=C(COC(=O)c1cccc(NC(=O)c2ccc(Br)cc2)c1)c1ccc(Br)cc1 :: n
Cc1ccccc1Cn1nnc2c(=O)[nH]c(C3CCN(C(=O)c4ccccc4Cl)CC3)nc21 :: n
CCCCN(C)CCNC(=O)Cn1ncc2c3ccccc3n(CCC)c2c1=O :: n

// query What did the test return for "Cc1ccc(NC(=O)c2cc(S(=O)(=O)NCCC3=CCCCC3)ccc2F)cc1C" ?
// result n

// query // next record "CC1=C(c2ccc(C)c(C)c2)S(=O)(=O)N(Cc2ccc(C(=O)Nc3cc(F)ccc3F)cc2)C1=O"
// result n

// query // next record "Cc1ccc(/C=C(\C#N)C(=O)Nc2ccc(Br)cc2)o1"
// result n

// query // next record "COc1ccc(C)cc1NC(=O)c1cc(S(=O)(=O)NC2CCCCCC2)ccc1F"
// result n

----------
test: IN Cell qHTS Assay for Inhibitors of the mTORC1 Signaling Pathway in MEF (Tsc2-/-, p53-/-) Cells: Sytravon; details: phospho-rpS6 immunofluorescence, 24 h; series mostly up to 38.3 µM; further: nearly all actives have a fitted effect of over 60% in size
Out of some 2,100 compounds screened, about 210 (10%) were called active. Roughly 53% stayed inconclusive and do not appear here. Some of the results follow.
PARAMETER MEASURED: outcome

Example cases with answers are listed next.
CCOc1ccc(OCC)c(NC(=O)C(NS(=O)(=O)c2cccs2)c2ccccc2)c1 (stereo not given) :: inactive
COc1cc(C2CC(=O)Nc3cc4c(cc32)OCCO4)cc(OC)c1O (stereo not given) :: inactive
COc1cc(-c2nc(-c3ccccc3)c(-c3ccc(Br)cc3)[nH]2)cc(OC)c1O :: inactive
CCOc1cc(C2c3c(-c4ccc(Br)cc4)n[nH]c3C(=O)N2c2ccc(Cl)cc2)ccc1O (stereo not given) :: inactive

We next turn to a different molecule, shown below.
// query May I ask what outcome has been recorded for COc1ccccc1NC(=O)C1=C(C)Nc2nc(-c3ccco3)nn2C1c1cccc(C)c1 (stereo not given) ?
// result inactive

----------
experiment: IN Cell qHTS Assay for Inhibitors of the mTORC1 Signaling Pathway in MEF (Tsc2-/-, p53-/-) Cells: Sytravon; settings: phospho-rpS6 immunofluorescence, 24 h; series mostly up to 38.3 µM; further: nearly all actives have a fitted effect of over 60% in size
Screen size: about 2,100 compounds; about 210 (10%) were called active. Inconclusive results (about 53%) are left out. Calls come from the whole dose curve; as a rule, active = well fitted inhibition curve with a large enough effect; inconclusive = small, poorly fitted or top-dose-only effect, or effect the other way; inactive = no such curve, though single readings can be large or run the other way. This is one part of the list.
Give one outcome, nothing more. List: active, inactive

COc1cccc(CNC(=O)CCn2cccn2)c1 :: inactive
CC(C)(C)c1ccc(OCC(=O)NCC2(N3CCOCC3)CCCCC2)cc1 :: inactive
CN1CCN(C2(CNC(=O)COc3ccc(C(C)(C)C)cc3)CCCCC2)CC1 :: active
COc1ccc(OC)c(Nc2ncnc3c2cnn3-c2cccc(Cl)c2)c1 :: inactive

// query What did the test return for "CN(C)C1(CNC(=O)COc2ccc(C(C)(C)C)cc2)CCCCC1" ?
// result inactive

// query // next record "Cc1ccc(OCC(=O)NCC2(N3CCN(C)CC3)CCCCC2)cc1C"
// result inactive

// query // next record CCC1CCCCN1C(=O)CSc1n[nH]c(-c2ccccc2)n1 (stereo unspecified)
// result inactive

// query // next record CCc1ccc(N=C2NC(=O)CC(C(=O)Nc3ccc(OC)cc3)S2)cc1 (stereo unspecified)
// result inactive

// query // next record COc1ccccc1NC(=O)C1=C(C)Nc2nc(SCc3ccccc3)nn2C1c1cccs1 (stereo unspecified)
// result inactive

// query // next record "Cc1cccc(-n2cnc3cc(C(=O)NC4CCCCCC4)ccc32)c1"
// result inactive

// query // next record "Cc1cc(C)c(Nc2ncnc3c2cnn3C)c(C)c1"
// result inactive
